Hi there, I'd appreciate the recorded melting point for every entry that follows.

get_value(item= CCc1nc2ccccc2n1-c1cc(N)nc(Nc2ccc3c(c2)OCO3)n1 [Cpd 154] , readout=melting point) returns 119 to 121 °C

get_value(item= CC(C)c1nc2ccccc2n1-c1cc(N)nc(Nc2ccc(C(F)(F)F)cc2)n1 [Cpd 74] , readout=melting point) returns 168 to 171 °C

get_value(item= COCc1nc2ccc(F)cc2n1-c1cc(N)nc(Nc2ccc(OC(F)F)cc2)n1 [Cpd 78] , readout=melting point) returns 120 to 122 °C

get_value(item= Cc1ccc(Nc2nc(N)cc(-n3c(C)nc4ccc(F)cc43)n2)cc1 [Cpd 134] , readout=melting point) returns 118 to 120 °C

get_value(item= Nc1cc(-c2c(C3CC3)nn3ccccc23)nc(Nc2ccc(C(F)(F)F)cc2)n1 [Cpd 126] , readout=melting point) returns 181 to 183 °C

get_value(item= Nc1cc(-n2c(C(F)F)nc3ccccc32)nc(Nc2ccc(OC(F)F)cc2)n1 [Cpd 88] , readout=melting point) returns 114 to 115 °C

get_value(item= Cc1cc2nc(C)n(-c3cc(N)nc(Nc4ccc(OC(F)F)cc4)n3)c2cc1C [Cpd 188] , readout=melting point) returns 89 to 91 °C

get_value(item= COc1ccc(Nc2nc(N)cc(-n3c(C)nc4ccc(F)cc43)n2)cc1F [Cpd 142] , readout=melting point) returns 166 to 167 °C

get_value(item= Cc1nc2ccc(F)cc2n1-c1cc(N)nc(Nc2ccc(N(C)C)cc2)n1 [Cpd 136] , readout=melting point) returns 232 to 235 °C

get_value(item= CCc1nc2ccc(F)cc2n1-c1cc(N)nc(Nc2cccc(OC)c2)n1 [Cpd 165] , readout=melting point) returns 133 to 135 °C

get_value(item= Cc1nc2ccc(F)cc2n1-c1cc(N)nc(Nc2cccc(F)c2)n1 [Cpd 138] , readout=melting point) returns 239 to 241 °C

get_value(item= Cc1cc2nc(C)n(-c3cc(N)nc(Nc4ccc(Cl)cc4)n3)c2cc1C [Cpd 184] , readout=melting point) returns 111 to 112 °C

get_value(item= CCc1nc2ccccc2n1-c1cc(N)nc(Nc2ccc(OC)cc2)n1 [Cpd 151] , readout=melting point) returns 144 to 145 °C

get_value(item= CCc1nc2ccc(F)cc2n1-c1cc(N)nc(Nc2ccc(OC(F)F)cc2)n1 [Cpd 71] , readout=melting point) returns 171 to 173 °C

get_value(item= Nc1cc(-c2c(C(F)F)nc3ccc(F)cn23)nc(Nc2ccc(C(F)(F)F)cc2)n1 [Cpd 63] , readout=melting point) returns 242 to 245 °C

get_value(item= Cc1cccc(Nc2nc(N)cc(-n3c(C)nc4ccc(F)cc43)n2)c1 [Cpd 139] , readout=melting point) returns 156 to 158 °C

get_value(item= CCc1nc2ccc(F)cc2n1-c1cc(N)nc(Nc2ccc(Cl)cc2)n1 [Cpd 158] , readout=melting point) returns 185 to 187 °C

get_value(item= CCc1nc2ccc(F)cc2n1-c1cc(N)nc(Nc2cccc(C)c2)n1 [Cpd 166] , readout=melting point) returns 149 to 150 °C

get_value(item= Nc1cc(-n2c(C(F)F)nc3ccc(F)cc32)nc(Nc2ccc(C(F)(F)F)cc2)n1 [Cpd 33] , readout=melting point) returns 201 to 203 °C
